Test system: A549/ATCC NSCLC
TEST SUMMARY: NCI-60 one-dose screen, 48 h
MEASUREMENT PARAMETERS: 10 µM unless noted
The panel holds about 83,000 compounds, 20% with a hit somewhere; the sample as a whole holds those more often. The source made the active and inactive calls. Rule for the calls: active = growth percent below 10; inactive = the rest.
Respond only with the outcome that fits, drawn from active, inactive

Reference set, count: 5
COc1ccccc1/C=C\C(=O)c1ccccc1 = inactive
CN1c2ccccc2C(C)(C)C12C=Cc1cc(O)ccc1O2 (configuration not stated) = inactive
CC1OC(OC2C(OC3CCC4(C)C(CCC5(C)C4CC=C4C6CC(C)(C)CCC6(CO)C(O)CC45C)C3(C)C)OC(C(=O)O)C(OC3OC(COC4OC(CO)C(O)C(O)C4O)C(O)C(O)C3O)C2O)C(O)C(O)C1O (configuration not stated) = active
O=C1N[C@H]2[C@H](CS[C@H]2CCCCC(=O)N(CCP(c2ccccc2)c2ccccc2)CCP(c2ccccc2)c2ccccc2)N1 = inactive
COc1ccc(N=N/N=c2\sc3cc(OC)ccc3n2C)cc1 = inactive

Dear all, I need the recorded test outcome for "CNc1ccc2c(c1)c1ccccc1n2C" , thank you.
inactive

Dear all, I need the recorded test outcome for "C[N+](C)=c1ccc2nc3c(cc(NCCCNc4cc5oc6cc(=[N+](C)C)ccc-6nc5c5ccccc45)c4ccccc43)oc-2c1" , thank you.
inactive

Dear all, I need the recorded test outcome for "O=C1c2ccccc2C(=O)c2sc(Nc3ccc(Cl)cc3)nc21" , thank you.
inactive

Dear all, I need the recorded test outcome for "O=[N+]([O-])c1ccc(N=Nc2ccc(O)cc2O)cc1" , thank you.
inactive

---

System: CCRF-CEM leukemia
TEST SUMMARY: NCI-60 one-dose screen, 48 h
MEASUREMENT PARAMETERS: 10 µM unless noted
This is part of a sample that, as a whole, favours compounds with a hit. Of some 83,000 tested, about 20% had one in any assay. Active and inactive are the calls of the source. Rule for the calls: active = growth percent below 10; inactive = the rest.
Respond only with the outcome that fits, drawn from yes = active, no = inactive

Reference set, count: 2
CCC(=O)Sc1ccccc1C(=O)Nc1ccc(Cl)cc1 = no
NC(=S)N/N=C\c1nccc2c(C(F)(F)C(F)(F)C(F)(F)F)cccc12 = yes

Dear all, I need the recorded test outcome for "CCC(CC)COC(=O)c1ccc(O)c(O)c1" , thank you.
no

Dear all, I need the recorded test outcome for "O=C1N[C@H]2[C@H](CS[C@H]2CCCCC(=O)N(CCP(c2ccccc2)c2ccccc2)CCP(c2ccccc2)c2ccccc2)N1" , thank you.
no

Dear all, I need the recorded test outcome for "CNc1ccc(N)cc1" , thank you.
no

Dear all, I need the recorded test outcome for "COc1ccc2nc3cc(Cl)ccc3c(NCCNc3c4ccc(Cl)cc4nc4ccc(OC)cc34)c2c1" , thank you.
yes

Dear all, I need the recorded test outcome for "c1ccc2c(c1)Nc1cc3ccccc3cc1N2" , thank you.
no

Dear all, I need the recorded test outcome for "COc1cc(NS(C)(=O)=O)ccc1Nc1c2ccccc2nc2ccccc12" , thank you.
yes

Dear all, I need the recorded test outcome for "Cn1c2ccccc2c2nnc(N/N=C/c3ccccn3)nc21" , thank you.
yes

Dear all, I need the recorded test outcome for "S=C(NCCNC(=S)[S][Sn]([c]1ccccc1)([c]1ccccc1)[c]1ccccc1)[S][Sn]([c]1ccccc1)([c]1ccccc1)[c]1ccccc1" , thank you.
yes

Dear all, I need the recorded test outcome for "CC(=Nc1ccc(N(C)C)cc1)c1ccccc1" , thank you.
no

Dear all, I need the recorded test outcome for "O=C1c2ccccc2C(=O)c2sc(Nc3cccc(Cl)c3)nc21" , thank you.
yes

---

System: OVCAR-3 ovarian
TEST SUMMARY: NCI-60 one-dose screen, 48 h (100 = growth as untreated, 0 = no growth, -100 = all killed)
MEASUREMENT PARAMETERS: 10 µM unless noted
This is part of a sample that, as a whole, favours compounds with a hit. Of some 83,000 tested, about 20% had one in any assay.
ASSAY METRIC: growth (%)
Lab book: enter the figure in %, no units written.

Please review the following examples before continuing.
Cc1ccc2nc(C[n+]3ccc4ccccc4c3)ccc2c1 = 52.8
Oc1c(Br)c(Br)c(O)c(Br)c1Br = 5.11
CC(=O)C(=Cc1ccc(C=C(C(C)=O)C(C)=O)cc1)C(C)=O = -16.2

Need growth, item "COc1cc(/C=C(/C)C[N+](=O)[O-])ccc1O"
85.4

Need growth, item "NC(=S)N/N=C\c1nccc2c(C(F)(F)C(F)(F)C(F)(F)F)cccc12"
4.2

---

Test system: SW-620 colon
TEST SUMMARY: NCI-60 one-dose screen, 48 h (100 = growth as untreated, 0 = no growth, -100 = all killed)
MEASUREMENT PARAMETERS: 10 µM unless noted
About 83,000 compounds went through this panel and 20% of them were active in at least one assay; those are over-represented in the sample as a whole.
Please enter yes (1) where growth is greater than or equal to 90%, and no (0) where it is lower.

Reference set, count: 3
Cc1ccc2nc(C[n+]3ccc4ccccc4c3)ccc2c1 = no (0)
CC1OC(OC2C(OC3CCC4(C)C(CCC5(C)C4CC=C4C6CC(C)(C)CCC6(CO)C(O)CC45C)C3(C)C)OC(C(=O)O)C(OC3OC(COC4OC(CO)C(O)C(O)C4O)C(O)C(O)C3O)C2O)C(O)C(O)C1O (stereo not given) = no (0)
CCN1/C(=C\c2cc[n+](CC)c3ccccc23)C=Cc2ccccc21 = no (0)

Would you kindly look at the next entry?
Is the recorded value of growth equal to or greater than 90% for this compound? "C/C=C1\SC(=S)NC1=O"
yes (1)

---

Tested on: MDA-MB-435 melanoma
TEST SUMMARY: NCI-60 one-dose screen, 48 h (100 = growth as untreated, 0 = no growth, -100 = all killed)
MEASUREMENT PARAMETERS: 10 µM unless noted
This is part of a sample that, as a whole, favours compounds with a hit. Of some 83,000 tested, about 20% had one in any assay.
Listed next: entries and their corresponding growth.
Lab book: enter the figure in %, no units written.

Please review the following examples before continuing.
CN(Cc1cnc2nc(N)nc(N)c2n1)c1ccc(C(=O)NC(CCC(=O)O)C(=O)O)cc1 (stereo unspecified) = 30.6
N#CSCc1ccc(Cl)c(CSC#N)c1 = 3.85
Oc1c(Cl)c2ccccc2c2ccccc12 = -72
N#CSCc1c(Cl)cccc1Cl = 29.6
Oc1c(Br)c(Br)c(O)c(Br)c1Br = 106

Need growth, item "NC(N)=N/N=C/c1ccc([N+](=O)[O-])o1"
115

Need growth, item C1=C(c2ccccc2)C(c2ccc(OCCN3CCCCC3)cc2)Oc2ccccc21 (stereo unspecified)
18.7

Need growth, item "CCCCCCCCCCCCCCNCc1ccccc1"
72.2

Need growth, item "Cc1ccc2c(ccc3c[n+]4c5ccccc5ccc4n32)c1"
-27.5

Need growth, item "CN(C)c1ccc(/C=N/N=C(\C#N)[S][Sn]([Cl])([c]2ccccc2)[c]2ccccc2)cc1"
15.6

Need growth, item "O=C1c2ccccc2C(=O)c2sc(Nc3cccc(Cl)c3)nc21"
-83.5

---

Test system: TK-10 renal
TEST SUMMARY: NCI-60 one-dose screen, 48 h
MEASUREMENT PARAMETERS: 10 µM unless noted
About 83,000 compounds went through this panel and 20% of them were active in at least one assay; those are over-represented in the sample as a whole. Active and inactive are the calls of the source. The calls were made as follows: active = growth percent below 10; inactive = the rest.
Respond only with the outcome that fits, drawn from active, inactive

Reference set, count: 6
O=C1NC(=O)/C(=C/C=C/c2ccccc2)S1 = inactive
COc1ccc(N=N/N=c2\sc3cc(OC)ccc3n2C)cc1 = inactive
CCCCCCCCCCCCCCNCc1ccccc1 = inactive
Cc1cc(C(C)(CC(C)C)c2ccc(O)c(C)c2)ccc1O = inactive
O=C1OCc2cccc3cccc1c23 = inactive
c1ccc2c(c1)Nc1cc3ccccc3cc1N2 = inactive

Would you kindly look at the next entry?
Dear all, I need the recorded test outcome for "CCOC(=O)/C=C/c1ccc([N+](=O)[O-])o1" , thank you.
inactive

---

Test system: SK-MEL-5 melanoma
TEST SUMMARY: NCI-60 one-dose screen, 48 h (100 = growth as untreated, 0 = no growth, -100 = all killed)
MEASUREMENT PARAMETERS: 10 µM unless noted
Compounds without any hit were thinned out: in the full panel of roughly 83,000, 20% have a hit. The source made the active and inactive calls. Rule for the calls: active = growth percent below 10; inactive = the rest.
Listed next: entries and their corresponding growth.

N#CSCc1c(Cl)cccc1Cl = 87.5% (inactive)

Reported growth for SK-MEL-5 melanoma, given "COc1ccccc1OC(=O)Oc1ccccc1OC" ?
100% (inactive)

Reported growth for SK-MEL-5 melanoma, given "O=C1C=CC(=O)N1C1c2ccccc2-c2ccccc21" ?
105% (inactive)

Reported growth for SK-MEL-5 melanoma, given Cc1ccnc(NC(c2ccccc2)c2ccc3cccnc3c2O)c1 (centres undefined) ?
39.4% (inactive)
